System: MDA-MB-435 melanoma
Assay: NCI-60 one-dose screen, 48 h (100 = growth as untreated, 0 = no growth, -100 = all killed)
Conditions: 10 µM unless noted
Compounds without any hit were thinned out: in the full panel of roughly 83,000, 20% have a hit. Calls of active or inactive are those of the source. The calls were made as follows: active = growth percent below 10; inactive = the rest.
Please respond with reported growth for every item in the list.

| COMPOUND | RESULT |
| --- | --- |
| N#Cc1c(-c2ccccc2)nc(SCC(O)CN2CCOCC2)nc1N1CCOCC1 (stereo not drawn) | 53% (inactive) |
| C=C(CNCCc1ccc(O)cc1)[C@@H]1CC[C@]2(CO)CC[C@]3(C)[C@H](CC[C@@H]4[C@@]5(C)CCC(=O)C(C)(C)[C@@H]5CC[C@]43C)[C@@H]12 | 2.13% (active) |
| COc1cc2c(c(OC)c1OC)C(=O)CC(c1cccc(NC(=O)c3ccc(C#N)cc3)c1)O2 (stereo not drawn) | 74% (inactive) |
| COc1cc(-c2nc3cc(Cl)c(Cl)cc3[nH]2)ccc1OCC(=O)N=Nc1c(O)[nH]c2ccc(Cl)cc12 | -57.7% (active) |
| Cc1cc(Nc2ccc(C(=O)N3CCCC3)cc2)nc(NCCCNc2ccnc3cc(Cl)ccc23)n1 | 79.6% (inactive) |

Would you be so kind as to report growth for each listed record?
1. CCOC(=O)C(=Cc1ccc(-c2ccccc2)cc1)C(=O)OCC
2. C=Cc1cnc(Nc2ccc(OC)cc2)nc1NCCCNC(=O)C1CCC1
3. CN(C)S(=O)(=O)Oc1ccc(-c2sc3cc(OS(=O)(=O)N(C)C)ccc3c2C(=O)c2ccc(OCCN3CCCCC3)cc2)cc1

Resp:
["38.3% (inactive)", "70.3% (inactive)", "78.6% (inactive)"]
